Tested on: behaviors of compound-treated mice
testName: Neuropharmacological Assay (SmartCube)
Format: in vivo
studyConditions: Mus musculus, ip, 0.25 h, dose having 50% or more total activity in SmartCube, i.p., read-out: MED (minimal effective dose)
Counter-ions that a name gives are not always drawn.

molecule: NCC1OCCc2c(-c3cccnn3)cccc21 (stereo not shown) [Compound 62, hydrochloride]
minimal effective dose: > 30 mg/kg
--
molecule: CNC[C@H]1OCCc2c(-c3ccncc3)cccc21 [Compound 18, dihydrochloride salt]
minimal effective dose: 10 to 30 mg/kg
--
molecule: CNC[C@H]1OCCc2cc(-c3cccnn3)ccc21 (single isomer, unassigned) [Compound 32, hydrochloride]
minimal effective dose: > 30 mg/kg
--
molecule: CNC[C@H]1OCCc2ccc(-c3cccnc3)cc21 [Compound 4, dihydrochloride]
minimal effective dose: 3 to 10 mg/kg
--
molecule: CNC[C@H]1OCCc2ccc(-c3cncnc3)cc21 (single isomer, unassigned) [Compound 25, hydrochloride]
minimal effective dose: 10 to 30 mg/kg
--
molecule: CNC[C@H]1OCCc2c(-c3cncnc3)cccc21 (single isomer, unassigned) [Compound 30, hydrochloride salt]
minimal effective dose: 3 to 10 mg/kg
--
molecule: CNC[C@@H]1OCCc2c(-c3cccnc3)cccc21 (single isomer, unassigned) [Compound 7, bis-hydrochloride]
minimal effective dose: 10 to 30 mg/kg

---

Test system: behaviors of compound-treated mice
testName: Neuropharmacological Assay (SmartCube)
Assay type: in vivo
studyConditions: Mus musculus, ip, 0.25 h, dose having 50% or more total activity in SmartCube, i.p., read-out: MED (minimal effective dose)
Structures can show the parent of a compound that is named as a salt.
// minimal effective dose lookup, one value per entry

compound: NCC1OCCc2ccc(-c3ccncn3)cc21 (stereo not shown) [Compound 57, hydrochloride]
minimal effective dose: 10 to 30 mg/kg
--
compound: NC[C@@H]1OCCc2c(-c3ccncn3)cccc21 (single isomer, unassigned) [Compound 74, hydrochloride salt]
minimal effective dose: > 30 mg/kg
--
compound: NC[C@H]1OCc2c(-c3cccnc3)cccc21 [Compound 36, hydrochloride]
minimal effective dose: ≤ 3 mg/kg
--
compound: NC[C@@H]1OCCc2cccc(-c3cccnc3)c21 (single isomer, unassigned) [Compound 9, hydrochloride]
minimal effective dose: 10 to 30 mg/kg

---

// minimal effective dose lookup, one value per entry
Tested on: behaviors of compound-treated mice
testName: Neuropharmacological Assay (SmartCube)
Format: in vivo
studyConditions: Mus musculus, ip, 0.25 h, dose having 50% or more total activity in SmartCube, i.p., read-out: MED (minimal effective dose)
Where a name gives a salt, the structure may show the parent alone.
metric: minimal effective dose

compound: NC[C@H]1OCc2c(-c3ccncc3)cccc21 (single isomer, unassigned) [Compound 38, hydrochloride salt]
metric: minimal effective dose
endpointValue: ≤ 3 mg/kg
--
compound: CNC[C@H]1OCCCc2c(-c3ccccn3)cccc21 (single isomer, unassigned) [Compound 157, hydrochloride salt]
metric: minimal effective dose
endpointValue: 10 to 30 mg/kg
--
compound: CNC[C@@H]1OCCc2cccc(-c3cccnc3)c21 (single isomer, unassigned) [Compound 1, bis-hydrochloride]
metric: minimal effective dose
endpointValue: 10 to 30 mg/kg
--
compound: CNC[C@H]1OCCc2cc(-c3cccnc3)ccc21 [Compound 6, bis-hydrochloride]
metric: minimal effective dose
endpointValue: 10 to 30 mg/kg
--
compound: NC[C@@H]1OCCc2c(-c3ccno3)cccc21 (single isomer, unassigned) [Compound 92, hydrochloride salt]
metric: minimal effective dose
endpointValue: ≤ 3 mg/kg
--
compound: NC[C@@H]1OCCc2c(-c3c[nH]cn3)cccc21 (single isomer, unassigned) [Compound 112, hydrochloride salt]
metric: minimal effective dose
endpointValue: 10 to 30 mg/kg
--
compound: CNC[C@H]1OCCCc2c(-c3ccncn3)cccc21 (single isomer, unassigned) [Compound 165, hydrochloride salt]
metric: minimal effective dose
endpointValue: 10 to 30 mg/kg
--
compound: CNC[C@@H]1OCCc2c(-c3cn[nH]c3)cccc21 [Compound 118, hydrochloride salt]
metric: minimal effective dose
endpointValue: 10 to 30 mg/kg
--
compound: CNC[C@H]1OCCc2c(-c3ncccn3)cccc21 [Compound 23, hydrochloride salt]
metric: minimal effective dose
endpointValue: 10 to 30 mg/kg

---

Tested on: behaviors of compound-treated mice
testName: Neuropharmacological Assay (SmartCube)
Assay type: in vivo
studyConditions: i.p. 15 min before behavioral test, most efficacious dose(s) of 3 doses
Structures can show the parent of a compound that is named as a salt.
metric: DP: anti-depressant (probability that activity matches class)

molecule: CNC[C@H]1OCCc2c(-c3ccon3)cccc21 (single isomer, unassigned) [Compound 91, hydrochloride salt]
endpointValue: ++++ (50% ≤ ++++)
--
molecule: CNC[C@@H]1OCc2c(-c3ccncc3)cccc21 (single isomer, unassigned) [Compound 39, hydrochloride salt]
endpointValue: ++++ (50% ≤ ++++)
--
molecule: CCNCC1OCCc2c(-c3ccncc3)cccc21 (stereo not shown) [Compound 51, hydrochloride salt]
endpointValue: ++++ (50% ≤ ++++)

---

Test system: behaviors of compound-treated mice
testName: Neuropharmacological Assay (SmartCube)
Format: in vivo
studyConditions: Mus musculus, ip, 0.25 h, dose having 50% or more total activity in SmartCube, i.p., read-out: MED (minimal effective dose)
Where a name gives a salt, the structure may show the parent alone.
// minimal effective dose lookup, one value per entry
metric: minimal effective dose

compound: CNCC1OCCc2ccc(-c3ccncn3)cc21 (stereo not shown) [Compound 58, hydrochloride salt]
endpointValue: 10 to 30 mg/kg
//
compound: NC[C@H]1OCCc2c(-c3ncco3)cccc21 [Compound 107, hydrochloride salt]
endpointValue: 10 to 30 mg/kg
//
compound: NC[C@H]1OCCc2c(-c3ccccc3)cccc21 (single isomer, unassigned) [Compound 131, hydrochloride salt]
endpointValue: ≤ 3 mg/kg
//
compound: CNC[C@H]1OCCc2c(-c3c[nH]cn3)cccc21 (single isomer, unassigned) [Compound 115, hydrochloride salt]
endpointValue: 10 to 30 mg/kg
//
compound: Cc1cc(-c2cccc3c2CCO[C@@H]3CN)cc(C)n1 [Compound 127, dihydrochloride]
endpointValue: 10 to 30 mg/kg
//
compound: CNC[C@H]1OCCc2c(-c3cocn3)cccc21 [Compound 103, HCl salt]
endpointValue: ≤ 3 mg/kg
//
compound: CNC[C@@H]1OCCc2c(-c3ccccc3)cccc21 (single isomer, unassigned) [Compound 128, hydrochloride salt]
endpointValue: 10 to 30 mg/kg

---

System: behaviors of compound-treated mice
testName: Neuropharmacological Assay (SmartCube)
Type: in vivo
studyConditions: i.p. 15 min before behavioral test, most efficacious dose(s) of 3 doses
Structures can show the parent of a compound that is named as a salt.
metric: CE: cognitive enhancer (probability that activity matches class)

compound: NC[C@@H]1OCCc2c(-c3cncnc3)cccc21 (single isomer, unassigned) [Compound 27, hydrochloride salt]
studyTarget: behaviors of compound-treated mice
endpointValue: + (LOQ ≤ + <5%)
--
compound: NC[C@@H]1OCCc2cccc(-c3cccnc3)c21 (single isomer, unassigned) [Compound 9, hydrochloride]
studyTarget: behaviors of compound-treated mice
endpointValue: + (LOQ ≤ + <5%)
--
compound: Cc1cc(-c2cccc3c2CCO[C@H]3CN)ccn1 (single isomer, unassigned) [Compound 122, hydrochloride salt]
studyTarget: behaviors of compound-treated mice
endpointValue: + (LOQ ≤ + <5%)
--
compound: CNCC1OCCc2c(-c3ccncn3)cccc21 (stereo not drawn) [Compound 53, hydrochloride salt]
studyTarget: behaviors of compound-treated mice
endpointValue: + (LOQ ≤ + <5%)
--
compound: CNC[C@@H]1OCCc2c(-c3cnoc3)cccc21 (single isomer, unassigned) [Compound 84, hydrochloride salt]
studyTarget: behaviors of compound-treated mice
endpointValue: ++ (5% ≤ ++ <25%)
--
compound: NC[C@H]1OCCc2c(-c3ccno3)cccc21 (single isomer, unassigned) [Compound 93, hydrochloride salt]
studyTarget: behaviors of compound-treated mice
endpointValue: + (LOQ ≤ + <5%)
--
compound: CNC[C@H]1OCCc2ccc(-c3ccncc3)cc21 [Compound 50, hydrochloride]
studyTarget: behaviors of compound-treated mice
endpointValue: ++ (5% ≤ ++ <25%)
--
compound: CCNC[C@@H]1OCCc2c(-c3ccncc3)cccc21 (single isomer, unassigned) [Compound 66, hydrochloride salt]
studyTarget: behaviors of compound-treated mice
endpointValue: + (LOQ ≤ + <5%)
--
compound: NC[C@H]1OCCc2ccc(-c3ccncc3)cc21 [Compound 48, hydrochloride]
studyTarget: behaviors of compound-treated mice
endpointValue: ++ (5% ≤ ++ <25%)

---

System: behaviors of compound-treated mice
testName: Neuropharmacological Assay (SmartCube)
Type: in vivo
studyConditions: i.p. 15 min before behavioral test, most efficacious dose(s) of 3 doses
Structures can show the parent of a compound that is named as a salt.
metric: DP: anti-depressant (probability that activity matches class)

compound: NC[C@@H]1OCCCc2c(-c3ccccn3)cccc21 [Compound 158, hydrochloride salt]
endpointValue: + (LOQ ≤ + <5%)

compound: CNC[C@H]1OCCCc2c(-c3ccncn3)cccc21 (single isomer, unassigned) [Compound 165, hydrochloride salt]
endpointValue: ++ (5% ≤ ++ <25%)

compound: NC[C@@H]1OCc2c(-c3cccnc3)cccc21 [Compound 35, hydrochloride]
endpointValue: ++++ (50% ≤ ++++)

compound: CNC[C@@H]1OCCCc2c(-c3ccncn3)cccc21 (single isomer, unassigned) [Compound 164, hydrochloride salt]
endpointValue: + (LOQ ≤ + <5%)

compound: NC[C@H]1OCCc2c(-c3ccccn3)cccc21 (single isomer, unassigned) [Compound 46, hydrochloride]
endpointValue: ++ (5% ≤ ++ <25%)

compound: NC[C@H]1OCCc2c(-c3ccnnc3)cccc21 (single isomer, unassigned) [Compound 79, hydrochloride salt]
endpointValue: ++ (5% ≤ ++ <25%)

compound: NCC1OCCc2c(-c3cccnn3)cccc21 (centres unmarked) [Compound 62, hydrochloride]
endpointValue: ++ (5% ≤ ++ <25%)

compound: CNC[C@H]1OCCc2c(-c3cncnc3)cccc21 (single isomer, unassigned) [Compound 30, hydrochloride salt]
endpointValue: ++++ (50% ≤ ++++)

compound: CNCC1OCCc2ccc(-c3ccncn3)cc21 (centres unmarked) [Compound 58, hydrochloride salt]
endpointValue: + (LOQ ≤ + <5%)

compound: NC[C@H]1OCCc2c(-c3c[nH]cn3)cccc21 (single isomer, unassigned) [Compound 113, hydrochloride salt]
endpointValue: ++ (5% ≤ ++ <25%)

compound: NC[C@@H]1OCCc2c(-c3ccncn3)cccc21 (single isomer, unassigned) [Compound 74, hydrochloride salt]
endpointValue: ++ (5% ≤ ++ <25%)

compound: NC[C@@H]1OCCc2ccc(-c3ccncc3)cc21 [Compound 47, hydrochloride]
endpointValue: ++++ (50% ≤ ++++)

compound: NC[C@@H]1OCCCc2c(-c3ccncc3)cccc21 (single isomer, unassigned)
endpointValue: ++ (5% ≤ ++ <25%)

compound: NC[C@H]1OCCc2c(-c3cncnc3)cccc21 (single isomer, unassigned) [Compound 28, hydrochloride salt]
endpointValue: +++ (25% ≤ +++ <50%)

compound: CNC[C@H]1OCCc2c(-c3ccno3)cccc21
endpointValue: ++++ (50% ≤ ++++)

compound: NC[C@H]1OCc2c(-c3ccccn3)cccc21 (single isomer, unassigned)
endpointValue: ++ (5% ≤ ++ <25%)

compound: CNC[C@H]1OCCc2c(-c3ccncc3)cccc21 [Compound 18, dihydrochloride salt]
endpointValue: ++++ (50% ≤ ++++)

compound: CNC[C@@H]1OCCCc2c(-c3ccccn3)cccc21 (single isomer, unassigned) [Compound 156, hydrochloride salt]
endpointValue: + (LOQ ≤ + <5%)

compound: NC[C@H]1OCCCc2c(-c3ccncc3)cccc21 (single isomer, unassigned)
endpointValue: ++++ (50% ≤ ++++)

compound: CNC[C@H]1OCCCc2c(-c3cncs3)cccc21 (single isomer, unassigned) [Compound 169, hydrochloride salt]
endpointValue: + (LOQ ≤ + <5%)

compound: CNC[C@@H]1OCCc2c(-c3c[nH]cn3)cccc21 (single isomer, unassigned) [Compound 114, hydrochloride salt]
endpointValue: + (LOQ ≤ + <5%)

compound: NC[C@H]1OCCc2c(-c3cn[nH]c3)cccc21 [Compound 117, hydrochloride salt]
endpointValue: ++ (5% ≤ ++ <25%)

compound: CNC[C@@H]1OCCc2c(-c3cnoc3)cccc21 (single isomer, unassigned) [Compound 84, hydrochloride salt]
endpointValue: ++ (5% ≤ ++ <25%)

compound: NC[C@@H]1OCCc2c(-c3ccccn3)cccc21 (single isomer, unassigned) [Compound 45, hydrochloride]
endpointValue: ++ (5% ≤ ++ <25%)

compound: NC[C@@H]1OCCc2c(-c3cccnc3)cccc21 [Compound 15, hydrochloride]
endpointValue: +++ (25% ≤ +++ <50%)

compound: NC[C@H]1OCCc2c(-c3cncs3)cccc21 (single isomer, unassigned) [Compound 71, hydrochloride salt]
endpointValue: ++ (5% ≤ ++ <25%)

compound: CNC[C@@H]1OCCc2c(-c3ccccc3)cccc21 (single isomer, unassigned) [Compound 128, hydrochloride salt]
endpointValue: + (LOQ ≤ + <5%)

compound: NC[C@@H]1OCCCc2c(-c3ccncn3)cccc21 (single isomer, unassigned)
endpointValue: + (LOQ ≤ + <5%)

compound: NC[C@@H]1OCCCc2c(-c3cncs3)cccc21 (single isomer, unassigned) [Compound 170, hydrochloride salt]
endpointValue: ++ (5% ≤ ++ <25%)

src = patent US10780074B2
